assay: control 3'UTR Renilla luciferase suppression, dose response, counter-screen for Shn3 inhibitor project, cell-based, Clone20-Shn3RL, cherry-picked (AID 624133); type: functional
The source made the active and inactive calls.
MEASURED PROPERTY: AC50

Below, 4 compounds whose answers are already recorded.
{"COMPOUND": "CC(C)c1ccc(NC(=O)Nc2nc(C(N)CCc3ccccc3)cs2)cc1 (stereo unspecified)", "AC50": "10.3 µM (active)"}
{"COMPOUND": "c1ccc(CCNc2ccnc3cc4ccccc4cc23)cc1", "AC50": "3.45 µM (active)"}
{"COMPOUND": "CC(C)C[C@@H](CO)N(Cc1ccccc1)S(=O)(=O)N(Cc1ccccc1)[C@@H](CO)CC(C)C", "AC50": "31 µM (active)"}
{"COMPOUND": "C[n+]1c2n(c3ccccc31)N=C(c1cc(C(C)(C)C)c(O)c(C(C)(C)C)c1)CS2", "AC50": "7.16 µM (active)"}

Item: `Cc1ccc(-c2nc3ncccc3o2)cc1NC(=O)c1sc2ccccc2c1Cl` | AC50: 36.5 µM (active)

Item: `c1ccc(CN=C(NCc2ccccc2)NCc2ccccc2)cc1` | AC50: 2.06 µM (active)

* * *

biological target: Glyceraldehyde-3-phosphate dehydrogenase (Homo sapiens, UniProt P04406)
Sequence (P04406 whole entry): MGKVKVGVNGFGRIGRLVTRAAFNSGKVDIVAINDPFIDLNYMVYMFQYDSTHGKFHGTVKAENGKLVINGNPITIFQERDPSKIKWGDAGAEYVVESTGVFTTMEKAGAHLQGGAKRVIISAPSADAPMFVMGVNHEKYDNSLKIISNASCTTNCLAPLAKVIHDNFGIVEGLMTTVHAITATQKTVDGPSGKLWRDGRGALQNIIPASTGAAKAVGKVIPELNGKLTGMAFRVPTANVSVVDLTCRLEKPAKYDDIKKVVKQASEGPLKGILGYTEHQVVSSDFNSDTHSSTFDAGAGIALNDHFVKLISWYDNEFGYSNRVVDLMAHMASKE
Parameter IC50: see the listing below.

{"COMPOUND": "Cc1cc(C(=O)Nc2cccc(C(=O)O)c2)oc1C", "REPORTED": "> 100 µM (not active)"}
{"COMPOUND": "COc1cccc(N2C(=O)C(Cl)=C(N3CCN(c4ccccc4)CC3)C2=O)c1", "REPORTED": "> 50 µM (inconclusive)"}
{"COMPOUND": "O=C1C(Cl)=C(N2CCN(c3cccc(C(F)(F)F)c3)CC2)C(=O)N1c1ccc(Cl)c(Cl)c1", "REPORTED": "> 100 µM (not active)"}
{"COMPOUND": "COc1ccc(S(=O)(=O)Nc2ccncn2)cc1OC", "REPORTED": "> 100 µM (not active)"}
{"COMPOUND": "COc1ccc(-c2cc3nnc(-c4ccccc4)nc3s2)cc1", "REPORTED": "> 100 µM (not active)"}

Item: `Cc1cccc(N2C(=O)C(Cl)=C(N3CCOCC3)C2=O)c1` | IC50: > 50 µM (inconclusive)

Item: O=C(O)C1Nc2c(cccc2C(F)(F)F)C2C=CCC12 (configuration not stated) | IC50: > 100 µM (not active)

* * *

biological target: Tumor necrosis factor (Homo sapiens, UniProt P01375); test: TNFa-triggered NF-kB activation inhibitors, SAR follow-up, cell-based, revised (AID 2337); assay type: functional
Sequence (P01375 whole entry): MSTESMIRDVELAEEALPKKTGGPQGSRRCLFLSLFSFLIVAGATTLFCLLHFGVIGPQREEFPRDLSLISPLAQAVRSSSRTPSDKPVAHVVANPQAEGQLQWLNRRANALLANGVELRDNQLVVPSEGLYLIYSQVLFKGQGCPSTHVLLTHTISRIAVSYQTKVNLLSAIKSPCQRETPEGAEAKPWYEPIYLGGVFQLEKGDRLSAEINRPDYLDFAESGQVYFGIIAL
The source made the active and inactive calls.
Pick one: active, inactive

Examples from the recorded data:
{"COMPOUND": "CC(=O)Nc1ccc(NC(=O)c2ccc(CN3CCc4ccccc4C3)cc2)cc1", "TARGET UNDER TEST": "Tumor necrosis factor (Homo sapiens, UniProt P01375)", "ASSIGNED CATEGORY": "inactive"}
{"COMPOUND": "Cc1ccc(C(=O)ON=C(N)c2ccccn2)c(C)c1", "TARGET UNDER TEST": "Tumor necrosis factor (Homo sapiens, UniProt P01375)", "ASSIGNED CATEGORY": "active"}
{"COMPOUND": "NC(=O)C1CCN(c2ccc(S(=O)(=O)N3CCC(Cc4ccccc4)CC3)cn2)CC1", "TARGET UNDER TEST": "Tumor necrosis factor (Homo sapiens, UniProt P01375)", "ASSIGNED CATEGORY": "active"}

What call does the record list for CC(Nc1ncnc2sccc12)c1ccccc1 (centres undefined) ?
active

FYI, the data here is from ChEMBL document CHEMBL1201862.
